Reference source: ChEMBL document CHEMBL1155553

Target: Cathepsin B (Homo sapiens)
Assay: Inhibition of cathepsin B assessed as proteolytic activity at 40 nM by fluorimetric assay
Parameters: scale not given: the % may be the effect or the level left
Measured Property: Activity (%)

[[record]]
compound = "CCOC(=O)CNC(=O)C(=O)C(COCc1ccccc1)NC(=O)[C@H](CC1CCCCC1)NC(=O)c1ccc(C(=O)OC)c(NC(=O)OC(C)(C)C)c1 (stereo partly drawn)"
study_target = "Cathepsin B (Homo sapiens)"
value_reported = 89

[[record]]
compound = "CCOC(=O)CNC(=O)C(=O)C(COCc1ccccc1)NC(=O)[C@H](CC1CCCCC1)NC(=O)c1ccc(C(=O)OC)c(N)c1 (stereo partly drawn)"
study_target = "Cathepsin B (Homo sapiens)"
value_reported = 84

[[record]]
compound = "CCOC(=O)CNC(=O)C(=O)C(COCc1ccccc1)NC(=O)[C@H](CC1CCCCC1)NC(=O)c1cccc([N+](=O)[O-])c1 (stereo partly drawn)"
study_target = "Cathepsin B (Homo sapiens)"
value_reported = 97


----------
Target: Cathepsin S (Homo sapiens, UniProt P25774)
Sequence (P25774 whole entry): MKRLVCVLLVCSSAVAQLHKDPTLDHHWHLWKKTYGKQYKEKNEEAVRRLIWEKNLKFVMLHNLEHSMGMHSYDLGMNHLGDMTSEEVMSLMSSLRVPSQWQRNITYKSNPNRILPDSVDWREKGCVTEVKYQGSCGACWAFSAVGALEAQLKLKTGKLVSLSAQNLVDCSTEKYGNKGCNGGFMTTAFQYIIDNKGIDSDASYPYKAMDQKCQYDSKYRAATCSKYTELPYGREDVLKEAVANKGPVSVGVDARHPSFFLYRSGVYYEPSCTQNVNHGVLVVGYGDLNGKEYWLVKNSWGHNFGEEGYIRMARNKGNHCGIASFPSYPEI
Experiment: Inhibition of human recombinant cathepsin S expressed in Escherichia coli BL21 (DE3) after 10 mins by fluorescence assay
Measured Property: IC50

[[record]]
compound = "CCOC(=O)CNC(=O)C(=O)C(COCc1ccccc1)NC(=O)[C@H](CC1CCCCC1)NC(=O)c1cc(OC)ccc1[N+](=O)[O-] (some centres undefined)"
measured_property = "IC50"
value_reported = "3.1 nM"

[[record]]
compound = "CCOC(=O)CNC(=O)C(=O)C(COCc1ccccc1)NC(=O)[C@H](CC1CCCCC1)NC(=O)/C=C/c1cc(OC)ccc1OC (some centres undefined)"
measured_property = "IC50"
value_reported = "3.8 nM"

[[record]]
compound = "CCOC(=O)CNC(=O)C(=O)C(COCc1ccccc1)NC(=O)[C@H](CC1CCCCC1)NC(=O)c1cccc([N+](=O)[O-])c1 (some centres undefined)"
measured_property = "IC50"
value_reported = "1.9 nM"

[[record]]
compound = "CCOC(=O)CNC(=O)C(=O)[C@H](COCc1ccccc1)NC(=O)[C@H](CC1CCCCC1)NC(=O)c1cc(F)ccc1F"
measured_property = "IC50"
value_reported = "11.5 nM"


----------
Test: Antiinvasive activity in human CL1-5 cells assessed as cellular migration after 24 hrs by fluorescence assay relative to control
Type: functional
Parameters: concentration or dose not given beside the values
// classify: if (Activity < 60%) Condition met else Condition not met

[[record]]
compound = "CCOC(=O)CNC(=O)C(=O)C(COCc1ccccc1)NC(=O)[C@H](CC1CCCCC1)NC(=O)c1ccc(C(=O)OC)c(NC(=O)OC(C)(C)C)c1 (stereo not given in full)"
group_label = "Condition met"

[[record]]
compound = "CCOC(=O)CNC(=O)C(=O)C(COCc1ccccc1)NC(=O)[C@H](CC1CCCCC1)NC(=O)c1cccc(C)c1[N+](=O)[O-] (stereo not given in full)"
group_label = "Condition not met"

[[record]]
compound = "CCOC(=O)CNC(=O)C(=O)C(COCc1ccccc1)NC(=O)[C@H](CC1CCCCC1)NC(=O)c1cc(SC)ccc1Cl (stereo not given in full)"
group_label = "Condition not met"

[[record]]
compound = "N#C[C@H](COCc1ccccc1)NC(=O)[C@H](CC1CCCCC1)NC(=O)N1CCOCC1"
group_label = "Condition not met"

[[record]]
compound = "CCOC(=O)CNC(=O)C(=O)C(COCc1ccccc1)NC(=O)[C@H](CC1CCCCC1)NC(=O)c1cc(Cl)ccc1[N+](=O)[O-] (stereo not given in full)"
group_label = "Condition not met"


----------
Tested on: HUVEC
Test: Antiinvasive activity in VEGF-stimulated HUVEC assessed as cellular migration after 24 hrs by fluorescence assay relative to control
Format: functional, Homo sapiens
Design: concentration or dose not given beside the values
We begin with a simple list: items and their reported Activity.
Measured Property: Activity (%)

[[record]]
compound = "CCCCCC1OC(=O)C(C(=O)N[C@@H](CC2CCCCC2)C(=O)NC(COCc2ccccc2)C(=O)C(=O)NCC(=O)OC)=CC1C (some centres undefined)"
value_reported = 99

[[record]]
compound = "CCOC(=O)CNC(=O)C(=O)C(COCc1ccccc1)NC(=O)[C@H](CC1CCCCC1)NC(=O)c1ccc(Cl)c(NC(=O)OC(C)(C)C)c1 (some centres undefined)"
value_reported = 48

[[record]]
compound = "N#C[C@H](COCc1ccccc1)NC(=O)[C@H](CC1CCCCC1)NC(=O)N1CCOCC1"
value_reported = 83

[[record]]
compound = "CCOC(=O)CNC(=O)C(=O)C(COCc1ccccc1)NC(=O)[C@H](CC1CCCCC1)NC(=O)N1CCOCC1 (some centres undefined)"
value_reported = 87


----------
Tested on: HUVEC
Assay: Antiinvasive activity in VEGF-stimulated HUVEC assessed as cellular migration after 24 hrs by fluorescence assay relative to control
Type: functional, Homo sapiens
Design: concentration or dose not given beside the values
We begin with a simple list: items and their reported Activity.
Measured Property: Activity (%)

[[record]]
compound = "CCOC(=O)CNC(=O)C(=O)C(COCc1ccccc1)NC(=O)[C@H](CC1CCCCC1)NC(=O)c1ccc([N+](=O)[O-])s1 (some centres undefined)"
value_unit = "%"
value_reported = 56

[[record]]
compound = "CCOC(=O)CNC(=O)C(=O)[C@H](COCc1ccccc1)NC(=O)[C@H](CC1CCCCC1)NC(=O)C(=O)c1cccs1"
value_unit = "%"
value_reported = 57

[[record]]
compound = "CCOC(=O)CNC(=O)C(=O)C(COCc1ccccc1)NC(=O)[C@H](CC1CCCCC1)NC(=O)c1ccc(Br)o1 (some centres undefined)"
value_unit = "%"
value_reported = 76

[[record]]
compound = "CCOC(=O)CNC(=O)C(=O)C(COCc1ccccc1)NC(=O)[C@H](CC1CCCCC1)NC(=O)Cc1cccc2ccccc12 (some centres undefined)"
value_unit = "%"
value_reported = 54

